These data points were gathered from a melting point compilation (Tetko et al.; mined from patent text by program, amines drawn as free bases though some values may be those of a salt).

Measure: melting point

Example cases with answers are listed next.
Q. Given CCc1c(F)c(F)c(-n2ncc(C#N)c2NCC(C)C(=O)O)c(F)c1F (stereo not given) , state its recorded melting point.
A. 138 to 140 °C

Q. Given CC(NC(=O)OC(C)(C)C)c1cc(F)c(N)c(I)c1 (stereo not given) , state its recorded melting point.
A. 88 to 90 °C

Q. Given `CCNc1ncc2ccc(=O)n(C)c2n1` , state its recorded melting point.
A. 194 to 195 °C

Q. Given `COCOc1cc(OC)cc(C)c1C(=O)c1ccc(OCc2ccccc2)cc1` , state its recorded melting point.
A. 49 to 50 °C

---
Q. Given CN1CCN(C(=O)C(CC(=O)N2Cc3cscc3C2)Cc2ccccc2)CC1 (stereo not given) , state its recorded melting point.
A. 156 to 158 °C

Q. Given CCOC(=O)C(C)NC(=O)N1CCc2cc(S(=O)(=O)N3CCN(c4cccc(Cl)c4)CC3)ccc21 (stereo not given) , state its recorded melting point.
A. 167 to 168 °C

Q. Given `CCOC(=O)c1ccc(N2CCN(C(=O)c3ccc(Cl)cc3)CC2)cc1` , state its recorded melting point.
A. 147 to 150 °C

Q. Given `CCCOc1nc2ccc(I)cc2c(=O)n1CCC` , state its recorded melting point.
A. 49 to 53 °C

Q. Given `Cc1ccc(-c2c(-c3ccc(S(C)(=O)=O)cc3)cnn(-c3ccc(F)c(F)c3)c2=O)cc1` , state its recorded melting point.
A. 190 to 192 °C

Q. Given `CCCCc1nc2cccc(O)c2n1Cc1ccc(-c2ccccc2-c2nnn[nH]2)cc1` , state its recorded melting point.
A. 186 to 188 °C

###

Measure: melting point

Q. Given `CC(=O)ON(C(=O)NN(C)C)C1c2ccccc2Oc2ccccc21` , state its recorded melting point.
A. 120 to 121 °C

Q. Given `Cn1ncnc1COc1nn2c(-c3ccccc3)nnc2cc1-c1ccco1` , state its recorded melting point.
A. 263 to 265 °C

Q. Given `CCCCCCCCCCCCCCCCCCOc1cc(OCCCCC(=O)OC)cc(C(=O)O)c1` , state its recorded melting point.
A. 68 to 70 °C

Q. Given COc1ccc2c(c1)C(c1ccc(O)cc1)c1c-2ccc2cc(OC)ccc12 (centres undefined) , state its recorded melting point.
A. 196 to 199 °C

Q. Given CCOC(=O)NC(CCc1ccccc1)P(=O)(CC(=O)O)OCc1ccccc1 (centres undefined) , state its recorded melting point.
A. 151 to 153 °C

---
Q. Given `O=C(N[C@H]1CCN(CCc2ccc(F)cc2)C1)C(c1cccs1)c1cccs1` , state its recorded melting point.
A. 96 to 98 °C

Q. Given `Cn1ncc2c1-c1c(Oc3ccc(OCc4ccc5ccccc5n4)cc3)sc(C(N)=O)c1CC2` , state its recorded melting point.
A. 139 to 140 °C

Q. Given `CC(=O)NCc1ccc2c(c1)N(C1CCN(CCCc3ccc(F)cc3)CC1)CC2` , state its recorded melting point.
A. 128 to 130 °C

Q. Given `Cc1ccc(-c2ccc([C@H](C)N3CC[C@](CC(C)(C)O)(c4ccccc4)OC3=O)cc2)nn1` , state its recorded melting point.
A. 150 to 152 °C

###

Measure: melting point

Example cases with answers are listed next.
Q. Given COc1cc(C2C3=C(COC3=O)Nc3ccc4cn[nH]c4c32)ccc1F (stereo unspecified) , state its recorded melting point.
A. 307 to 309 °C

Q. Given `Nc1cc2cccc(F)c2oc1=O` , state its recorded melting point.
A. 173 to 174 °C

Q. Given `O=C(Nc1ccc(-n2nc(C3CC3)cc2C2CC2)cc1)c1c(F)cccc1F` , state its recorded melting point.
A. 158 to 163 °C

Q. Given `FC(F)(F)c1cc(Cl)c(-n2cccn2)c(Cl)c1` , state its recorded melting point.
A. 83 to 85 °C

Q. Given O=c1[nH]c2ccc(C3=NOC(CN4CCC(c5ccc(F)cc5)CC4)C3)cc2o1 (stereo unspecified) , state its recorded melting point.
A. 214 to 217 °C

---
Q. Given `COc1cc2c(cc1Nc1ncc(Cl)c(Nc3ccc(N4CCOCC4)cc3OC)n1)CCN(C(=O)CN(C)C)CC2` , state its recorded melting point.
A. 84 to 101 °C

Q. Given `CCSc1cc(SCC)c2ccc3c(SCC)cc(SCC)c4ccc1c2c43` , state its recorded melting point.
A. 180 °C

Q. Given CC1=C(CCC(C)(O)C#CCO)C(C)(C)CCC1 (stereo unspecified) , state its recorded melting point.
A. 83 to 84 °C

Q. Given `CN1C(=O)CC[C@]2(C)c3ccc(-c4ccc(C(C)(C)C)cc4)cc3CC[C@@H]12` , state its recorded melting point.
A. 141 to 147 °C

Q. Given `N#Cc1ccc2nc3sc(-c4ccccc4)cc3c(=O)n2c1` , state its recorded melting point.
A. 349 to 351 °C

Q. Given `CC(C)NC(=O)n1nc(N(C)C)n(C)c1=O` , state its recorded melting point.
A. 36 to 38 °C

Q. Given `CC(=O)CCCCN1CCN(c2ncccn2)CC1` , state its recorded melting point.
A. 44 to 47 °C
